# collection of IC50 values tested on 12-lipoxygenase (Sus scrofa)
Metric name: IC50 (nM)

CCCCCCCCCC[C@@H]1CC[C@H](c2ccccc2)C(=O)N1O (relative stereo) [1(v)] :: 1000
CCCCCCCCCCCCCC[C@H]1C[C@H](Cc2ccccc2)CC(=O)N1O (relative stereo) [1(oo)] :: 700
CCCCCCCCCCCC[C@@H]1C(=O)N(O)CC[C@@H]1c1ccccc1 (relative stereo) [1(r)] :: 800
CCCCCCCCCCCC[C@@H]1C[C@H](Cc2ccccc2)CC(=O)N1O (relative stereo) [1(ll)] :: 800

====

# Target entity: UniProtKB P16469
# Sequence (P16469 1-663): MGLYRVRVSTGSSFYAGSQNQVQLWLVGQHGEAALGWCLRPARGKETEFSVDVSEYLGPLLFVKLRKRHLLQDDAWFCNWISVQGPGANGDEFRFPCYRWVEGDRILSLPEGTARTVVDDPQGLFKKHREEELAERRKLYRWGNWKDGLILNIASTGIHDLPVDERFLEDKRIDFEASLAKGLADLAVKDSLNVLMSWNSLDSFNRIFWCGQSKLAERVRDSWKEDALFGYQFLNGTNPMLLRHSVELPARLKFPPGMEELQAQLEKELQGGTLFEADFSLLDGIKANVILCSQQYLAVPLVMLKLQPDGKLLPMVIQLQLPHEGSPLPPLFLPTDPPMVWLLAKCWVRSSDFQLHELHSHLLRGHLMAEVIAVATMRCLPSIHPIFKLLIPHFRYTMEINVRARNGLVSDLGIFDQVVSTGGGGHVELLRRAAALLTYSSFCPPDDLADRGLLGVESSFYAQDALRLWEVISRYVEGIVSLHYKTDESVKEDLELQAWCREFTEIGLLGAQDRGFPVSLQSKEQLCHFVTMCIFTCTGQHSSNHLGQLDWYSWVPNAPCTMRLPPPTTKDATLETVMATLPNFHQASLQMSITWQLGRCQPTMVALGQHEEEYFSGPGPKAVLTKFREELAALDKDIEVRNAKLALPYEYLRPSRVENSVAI
pIC50: −log10 of the molar value.
Metric name: pIC50

Solved cases below.
CCCCCCCCCC[C@@H]1C[C@H](c2ccccc2)CC(=O)N1O (relative stereo) :: 6.22
O=C1[C@@H](CCCc2ccccc2)[C@@H](c2ccccc2)CCN1O (relative stereo) :: 6.05
CCCCCCCCCCCC[C@H]1C[C@H](c2ccccc2)CC(=O)N1O (relative stereo) [1(e)] :: 6.30
CCCCCCCC[C@@H]1C[C@H](c2ccccc2)CC(=O)N1O (relative stereo) :: 6.38
O=C1C(Cc2cccc3ccccc23)C(c2ccccc2)CCN1O (stereo not shown) [1(ee)] :: 6.00

[I] O=C1C(CCCc2ccccc2)C(c2ccccc2)CCN1O (stereo not shown)
[II] CCCCCCCCCC[C@@H]1[C@@H](c2ccccc2)CCC(=O)N1O (relative stereo)
Of I and II , which carries the smaller reported pIC50 figure? State your choice using its label.
I
(I: 5.98, II: 6.52)

[P] O=C1CC(c2ccccc2)C(CCCc2ccccc2)CN1O (stereo not shown) [1(zz)]
[Q] O=C1CC[C@@H](c2ccccc2)[C@H](CCCc2ccccc2)N1O (relative stereo)
Looking at recorded values for pIC50, does P or Q come in lower? Please identify the chosen entry by its label.
P
(P: 5.80, Q: 6.00)

[a] O=C1C[C@@H](c2ccccc2)C[C@@H](CCCc2ccccc2)N1O (relative stereo)
[b] CCCCCCCC[C@@H]1C[C@H](c2ccc3ccccc3c2)CC(=O)N1O (relative stereo)
In terms of reported pIC50, does a or b have the smaller number? Could you answer with the label of the item you picked?
a
(a: 6.55, b: 7.05)

====

# Target entity: 12-lipoxygenase (Sus scrofa, UniProt P16469)
# Construct: porcine Leukocyte cytosol in buffer; from tissue; host or cells: porcine leukocyte cytosol
# Sequence (P16469 1-663): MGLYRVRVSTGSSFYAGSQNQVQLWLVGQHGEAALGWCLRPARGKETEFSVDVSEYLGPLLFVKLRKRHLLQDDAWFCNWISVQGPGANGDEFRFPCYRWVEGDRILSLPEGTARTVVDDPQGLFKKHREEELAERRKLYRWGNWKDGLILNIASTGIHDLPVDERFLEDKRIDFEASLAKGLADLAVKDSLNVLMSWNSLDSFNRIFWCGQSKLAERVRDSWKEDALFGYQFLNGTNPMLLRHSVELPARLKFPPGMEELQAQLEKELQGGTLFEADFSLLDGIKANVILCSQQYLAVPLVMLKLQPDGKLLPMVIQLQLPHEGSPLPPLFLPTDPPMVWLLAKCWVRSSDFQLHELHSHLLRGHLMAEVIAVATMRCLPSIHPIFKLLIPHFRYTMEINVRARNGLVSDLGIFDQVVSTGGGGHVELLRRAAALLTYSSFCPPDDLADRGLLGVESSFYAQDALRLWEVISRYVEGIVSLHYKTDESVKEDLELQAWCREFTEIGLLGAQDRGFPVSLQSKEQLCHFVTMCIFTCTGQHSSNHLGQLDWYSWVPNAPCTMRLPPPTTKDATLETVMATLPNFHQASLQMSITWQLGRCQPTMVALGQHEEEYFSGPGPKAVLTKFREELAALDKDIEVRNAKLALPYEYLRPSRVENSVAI
# Protocol notes: 12-lipoxygenase inhibition in porcine leukocyte cytosol ([1-14C] arachidonic acid conversion to 12-HETE, TLC)
# Assay type: biochemical
# Run parameters: porcine leukocyte cytosol 0.075 mg/mL, pH 8.0, 5 min preincubation, 5 μM arachidonic acid, 15 min at 37° C.
pIC50: −log10 of the molar value.
Metric name: pIC50

Observe how each entry below is paired with its result.
O=C1C[C@@H](c2ccccc2)C[C@H](CCCCCCCc2ccccc2)N1O (relative stereo) :: 6.70
CCCCCCCC[C@H]1C[C@H](c2cccc3ccccc23)CC(=O)N1O (relative stereo) :: 6.89
CCCCCCCCCCCC[C@@H]1[C@H](c2ccccc2)CCC(=O)N1O (relative stereo) :: 6.10
CCCCCCCCC[C@@H]1CC(=O)N(O)C[C@@H]1c1ccccc1 (relative stereo) [1(ss)] :: 6.40
CCCCCCCCCCCCCC[C@@H]1C[C@H](c2ccccc2)CC(=O)N1O (relative stereo) :: 6.52

[P] CCCCCCCCCCCCCC[C@H]1C[C@H](c2ccccc2)CC(=O)N1O (relative stereo)
[Q] CCCCCCCC[C@H]1C[C@H](c2ccccc2)CC(=O)N1O (relative stereo)
[R] O=C1C[C@@H](CCCc2ccccc2)C[C@H](c2ccccc2)N1O (relative stereo) [1(eee)]
[S] CCCCCCCCCCCC[C@H]1[C@H](c2ccccc2)CCC(=O)N1O (relative stereo) [1(z)]
Hey, quick one: sort these by pIC50, low to high? Returns: the labels arranged in the requested order.
R, S, P, Q
(R: 5.52, S: 6.10, P: 6.40, Q: 6.82)

[1] O=C1C(c2ccccc2)CC(CCCc2ccccc2)CN1O (centres unmarked)
[2] O=C1CCC(CCCc2ccccc2)C(CCCc2ccccc2)N1O (centres unmarked)
[3] O=C1CC(CCc2ccccc2)C(Cc2ccccc2)CN1O (centres unmarked) [1(rr)]
// ascending sort on recorded pIC50 In your reply, arrange the labels in the requested order.
3, 1, 2

The reported measurements were obtained from patent US5292884A.
